Items are presented alongside their recorded Mean percentage of T cells positive for GFP expression.
Tested on: AAVS1
Method notes: GFP insertion at AAVS1 in T cells with SpyCas9 RNP and gapped AAV templates, flow cytometry (Example 6)
Type: cell-based, human
Test context: Donor 2; Template D; day 7 post-editing
Strand notation (5' to 3'): a small letter for the sugar, then the base; units joined by * are phosphorothioate-linked, units joined directly phosphodiester-linked; [ ] holds rarer units or linkages, { } end groups; capitals alone tell only the bases. m = 2'-O-methyl; r = 2'-OH (RNA)
Assay metric: Mean percentage of T cells positive for GFP expression

{"Molecule": "G013520: AAVS1 SpyCas9 guide RNA, guide sequence SEQ ID NO: 254, chr19:55115623-55115643 (nucleic acid) guide: mG*mA*mG*rArGrArUrGrGrCrUrCrCrArGrGrArArArUrGrUrUrUrUrArGrAmGmCmUmAmGmAmAmAmUmAmGmCrArArGrUrUrArArArArUrArArGrGrCrUrArGrUrCrCrGrUrUrArUrCrAmAmCmUmUmGmAmAmAmAmAmGmUmGmGmCmAmCmCmGmAmGmUmCmGmGmUmGmCmU*mU*mU*mU", "Result": "72.20%"}
{"Molecule": "G000562: AAVS1 SpyCas9 guide RNA, guide sequence SEQ ID NO: 251, chr19:55115695-55115715 (nucleic acid) guide: mC*mC*mA*rArUrArUrCrArGrGrArGrArCrUrArGrGrArGrUrUrUrUrArGrAmGmCmUmAmGmAmAmAmUmAmGmCrArArGrUrUrArArArArUrArArGrGrCrUrArGrUrCrCrGrUrUrArUrCrAmAmCmUmUmGmAmAmAmAmAmGmUmGmGmCmAmCmCmGmAmGmUmCmGmGmUmGmCmU*mU*mU*mU", "Result": "27.50%"}
{"Molecule": "G013523: AAVS1 SpyCas9 guide RNA, guide sequence SEQ ID NO: 255, chr19:55115637-55115657 (nucleic acid) guide: mG*mG*mU*rGrArCrArCrArCrCrCrCrCrArUrUrUrCrCrGrUrUrUrUrArGrAmGmCmUmAmGmAmAmAmUmAmGmCrArArGrUrUrArArArArUrArArGrGrCrUrArGrUrCrCrGrUrUrArUrCrAmAmCmUmUmGmAmAmAmAmAmGmUmGmGmCmAmCmCmGmAmGmUmCmGmGmUmGmCmU*mU*mU*mU", "Result": "72.05%"}
{"Molecule": "G013519: AAVS1 SpyCas9 guide RNA, guide sequence SEQ ID NO: 253, chr19:55115616-55115636 (nucleic acid) guide: mG*mC*mA*rArGrGrArGrArGrArGrArUrGrGrCrUrCrCrGrUrUrUrUrArGrAmGmCmUmAmGmAmAmAmUmAmGmCrArArGrUrUrArArArArUrArArGrGrCrUrArGrUrCrCrGrUrUrArUrCrAmAmCmUmUmGmAmAmAmAmAmGmUmGmGmCmAmCmCmGmAmGmUmCmGmGmUmGmCmU*mU*mU*mU", "Result": "72.10%"}

These data points were gathered from patent US20250276090A1.
